// provenance: patent US8497075B2

Molecular target: hEBI2 (Homo sapiens, UniProt P32249)
Sequence (P32249 whole entry): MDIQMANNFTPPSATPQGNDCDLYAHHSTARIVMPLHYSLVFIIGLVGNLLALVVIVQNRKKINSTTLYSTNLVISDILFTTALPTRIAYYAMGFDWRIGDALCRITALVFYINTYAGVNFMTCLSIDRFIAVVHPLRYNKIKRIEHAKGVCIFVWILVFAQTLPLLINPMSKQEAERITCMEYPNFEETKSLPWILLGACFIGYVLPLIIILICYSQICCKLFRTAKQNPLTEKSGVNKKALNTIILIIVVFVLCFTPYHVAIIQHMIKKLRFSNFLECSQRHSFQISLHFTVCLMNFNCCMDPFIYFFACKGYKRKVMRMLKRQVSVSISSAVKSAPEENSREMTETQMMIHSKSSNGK
Test: [3H] 7a,25DHC radio-ligand binding assay (SPA), IC50 determination
Parameters: expressed in transfected cells; host or cells: CHO-K1 expressing apoaequorin (CHO-Aeq) with Gqi5; line E2
Settings: 10 nM radioligand; n = 3; read-out: [^3H] 7a,25DHC Binding IC50
Kindly state IC50 for each of the entries shown.
Answer format: numeric, µM implied, no suffix.

Kindly note the recorded IC50 for `C[C@H](CCCC(C)(C)O)[C@H]1CC[C@H]2[C@@H]3[C@H](O)C=C4C[C@@H](O)CC[C@]4(C)[C@H]3CC[C@]12C` , which is 0.0704

Value of IC50 reported for the compound `C[C@H](CCCC(C)(C)O)[C@H]1CC[C@H]2[C@@H]3[C@@H](O)C=C4C[C@@H](O)CC[C@]4(C)[C@H]3CC[C@]12C` is 2.63
